Recorded values, source patent US20110065632A1.

Property: pKi; scope: individual molecules
Target: hsst2 (Homo sapiens, UniProt P30874)
Construct: expressed in transfected cells
Sequence (P30874 whole entry): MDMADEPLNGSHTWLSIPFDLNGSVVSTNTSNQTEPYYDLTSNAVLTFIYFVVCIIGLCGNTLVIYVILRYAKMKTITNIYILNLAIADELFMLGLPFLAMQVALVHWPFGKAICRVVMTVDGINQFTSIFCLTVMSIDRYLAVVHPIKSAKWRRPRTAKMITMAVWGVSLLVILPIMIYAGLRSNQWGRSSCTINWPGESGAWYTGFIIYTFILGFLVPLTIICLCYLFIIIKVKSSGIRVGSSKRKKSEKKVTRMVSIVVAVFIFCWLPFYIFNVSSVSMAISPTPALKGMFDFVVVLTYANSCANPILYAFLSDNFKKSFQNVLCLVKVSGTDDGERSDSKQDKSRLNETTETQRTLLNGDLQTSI
Test: Somatostatin receptor radioligand binding assay, hsst2
Conditions: CHO-K1 membranes, [125I]MK-678; read-out: hsst2 Ki
Note: pKi values are expressed as the negative base-10 logarithm of concentration in M.

For orientation, consider the following solved cases.
Provide only the value of recorded pKi for `CCCN1C[C@H](CSCC(=O)NCCOCCOCC(=O)N[C@H](Cc2ccccc2)C(=O)N[C@H]2CSSC[C@@H](C(=O)N[C@H](C(N)=O)[C@@H](C)O)NC(=O)[C@H](CC)NC(=O)[C@H](CCCCN)NC(=O)[C@@H](Cc3c[nH]c4ccccc34)NC(=O)[C@H](Cc3ccc(O)cc3)NC2=O)C[C@@H]2c3cccc4[nH]cc(c34)C[C@H]21`
9.96

Provide only the value of recorded pKi for `CCCN1C[C@H](CNC(=O)CCCC(=O)N[C@H](Cc2ccccc2)C(=O)N[C@H]2CSSC[C@@H](C(=O)N[C@H](C(N)=O)[C@@H](C)O)NC(=O)[C@H](CC)NC(=O)[C@H](CCCCN)NC(=O)[C@@H](Cc3c[nH]c4ccccc34)NC(=O)[C@H](Cc3ccc(O)cc3)NC2=O)C[C@@H]2c3cccc4[nH]cc(c34)C[C@H]21`
9.85

Provide only the value of recorded pKi for `CCCN1C[C@H](CSCC(=O)N[C@H](Cc2ccccc2)C(=O)N[C@H]2CSSC[C@@H](C(=O)N[C@H](C(N)=O)[C@@H](C)O)NC(=O)[C@H](C(C)C)NC(=O)[C@H](CCCCN)NC(=O)[C@@H](Cc3c[nH]c4ccccc34)NC(=O)[C@H](Cc3ccc(O)c(I)c3)NC2=O)C[C@@H]2c3cccc4[nH]cc(c34)C[C@H]21`
9.40

Provide only the value of recorded pKi for `CC[C@@H]1NC(=O)[C@H](CCCCN)NC(=O)[C@@H](Cc2c[nH]c3ccccc23)NC(=O)[C@H](Cc2ccc(O)cc2)NC(=O)[C@@H](NC(=O)[C@@H](Cc2ccccc2)NC(=O)CN2CCN(CCNC(=O)CSC[C@@H]3C[C@@H]4c5cccc6[nH]cc(c56)C[C@H]4N(C)C3)CC2)CSSC[C@@H](C(=O)N[C@H](C(N)=O)[C@@H](C)O)NC1=O`
9.46

Provide only the value of recorded pKi for `CC(C)[C@@H]1NC(=O)[C@H](CCCCN)NC(=O)[C@@H](Cc2c[nH]c3ccccc23)NC(=O)[C@H](Cc2ccc(O)c(I)c2)NC(=O)[C@@H](NC(=O)[C@@H](Cc2ccccc2)NC(=O)CN2CCN(CCNC(=O)CN3CCN(CCNC(=O)CSC[C@@H]4C[C@@H]5c6cccc7[nH]cc(c67)C[C@H]5N(C)C4)CC3)CC2)CSSC[C@@H](C(=O)N[C@H](C(N)=O)[C@@H](C)O)NC1=O`
9.38

We now examine a further molecule.
Provide only the value of recorded pKi for `CCCN1C[C@H](CSCC(=O)NCCCC[C@H](NC(=O)CSC[C@@H]2C[C@@H]3c4cccc5[nH]cc(c45)C[C@H]3N(CCC)C2)C(=O)N[C@H]2CSSC[C@@H](C(=O)N[C@H](C(N)=O)[C@@H](C)O)NC(=O)[C@H](CC)NC(=O)[C@H](CCCCN)NC(=O)[C@@H](Cc3c[nH]c4ccccc34)NC(=O)[C@H](Cc3ccc(O)cc3)NC2=O)C[C@@H]2c3cccc4[nH]cc(c34)C[C@H]21`
9.27
